src = patent US20230174507A1

This section presents molecules with their documented IC50 values.
TARGET: human ACSS2 protein (Homo sapiens, UniProt Q9NR19)
Sequence (Q9NR19 whole entry): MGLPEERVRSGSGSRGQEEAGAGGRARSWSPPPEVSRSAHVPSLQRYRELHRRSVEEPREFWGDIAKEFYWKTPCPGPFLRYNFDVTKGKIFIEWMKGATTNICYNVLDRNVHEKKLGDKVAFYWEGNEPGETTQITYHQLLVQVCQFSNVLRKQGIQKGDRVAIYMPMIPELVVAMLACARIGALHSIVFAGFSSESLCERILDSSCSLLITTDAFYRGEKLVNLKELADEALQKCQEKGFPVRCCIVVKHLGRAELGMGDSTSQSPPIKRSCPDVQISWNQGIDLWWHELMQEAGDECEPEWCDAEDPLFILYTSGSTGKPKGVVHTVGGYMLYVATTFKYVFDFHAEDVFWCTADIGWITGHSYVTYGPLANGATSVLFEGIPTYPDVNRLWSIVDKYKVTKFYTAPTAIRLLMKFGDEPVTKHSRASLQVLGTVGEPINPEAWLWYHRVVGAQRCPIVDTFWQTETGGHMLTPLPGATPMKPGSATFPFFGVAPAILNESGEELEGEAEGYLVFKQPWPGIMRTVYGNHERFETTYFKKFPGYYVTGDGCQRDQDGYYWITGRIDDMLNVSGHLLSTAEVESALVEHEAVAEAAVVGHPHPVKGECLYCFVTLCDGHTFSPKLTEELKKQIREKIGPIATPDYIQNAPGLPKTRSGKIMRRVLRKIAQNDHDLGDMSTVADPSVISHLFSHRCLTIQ

Some molecules with recorded IC50:
INSERT INTO assay_data (molecule, target, experimental_result) VALUES
  ('CCC(F)(F)c1cccc(NC(=O)c2c(C)[nH]c(-c3ccc(OC)c(-c4c(C)cc(C)cc4C)c3)[n+]2[O-])c1', 'human ACSS2 protein (Homo sapiens, UniProt Q9NR19)', '1 to 30 nM'),
  ('COc1cc(F)c(-c2[nH]c(C)c(C(=O)Nc3cccc(C(F)(F)C4CC4)c3)[n+]2[O-])nc1-c1c(C)cccc1C', 'human ACSS2 protein (Homo sapiens, UniProt Q9NR19)', '< 1 nM'),
  ('CCC(F)(F)c1cccc(NC(=O)c2c(C)[nH]c(-c3ccc(OC)c(-c4c(C)cc(CCc5ccccc5)cc4C)c3)[n+]2[O-])c1', 'human ACSS2 protein (Homo sapiens, UniProt Q9NR19)', '> 30 nM');

query: Value lookup for IC50; key = "COc1cc(F)c(-c2[nH]c(C)c(C(=O)Nc3cccc(C(F)(F)C4CC4)c3)[n+]2[O-])cc1-c1c(C)cccc1C"
result: < 1 nM

query: Also check CCC(F)(F)c1cccc(NC(=O)c2c(C)[nH]c(-c3cc(C)cc(-c4c(C)cccc4C)c3)[n+]2[O-])c1 [Compound 106]
result: < 1 nM

query: Also check "CNC(=O)c1cccc(NC(=O)c2c(C)[nH]c(-c3ccc(F)c(-c4c(C)cccc4C)c3)[n+]2[O-])c1"
result: < 1 nM

query: Also check "CCC(F)(F)c1cccc(NC(=O)c2c(C)[nH]c(-c3ccc(C#N)c(-c4c(C)cccc4C)c3)[n+]2[O-])c1"
result: < 1 nM

query: Also check "COc1cc(F)c(-c2[nH]c(C)c(C(=O)Nc3cccc(C(F)(F)F)c3)[n+]2[O-])cc1-c1c(F)cccc1F"
result: < 1 nM

query: Also check "Cc1cccc(C)c1-c1cc(OCCN2CCCC2)cc(-c2[nH]c(C)c(C(=O)Nc3cccc(C(F)(F)C4CC4)c3)[n+]2[O-])c1"
result: < 1 nM

query: Also check "CNC(=O)c1cccc(NC(=O)c2c(C)[nH]c(-c3cc(-c4c(C)cccc4C)cc(N(C)C)c3)[n+]2[O-])c1"
result: < 1 nM

query: Also check "Cc1[nH]c(-c2ccc(OCCCN3CCCC3)cc2)[n+]([O-])c1C(=O)Nc1cccc(C(F)(F)C2CC2)c1"
result: 1 to 30 nM

query: Also check "COc1ccc(-c2[nH]c(C)c(C(=O)Nc3cccc(C(F)(F)C4CC4)c3)[n+]2[O-])cc1-c1c(C)cncc1C"
result: < 1 nM

query: Also check "CCC(F)(F)c1cccc(NC(=O)c2c(C)[nH]c(-c3ccc(OC)c(-c4ncccn4)c3C)[n+]2[O-])c1"
result: > 30 nM

query: Also check "COc1cc(-c2c(C)cccc2C)cc(-c2[nH]c(C)c(C(=O)Nc3cccc(C(F)(F)C4CC4)c3)[n+]2[O-])c1"
result: < 1 nM

query: Also check "COc1ccc(-c2[nH]c(C)c(C(=O)Nc3cccc(C(=O)N(C)C)c3)[n+]2[O-])cc1-c1c(C)cccc1C"
result: < 1 nM

query: Also check "Cc1cccc(C)c1-c1cc(-c2[nH]c(C)c(C(=O)Nc3cccc(C(F)(F)C4CC4)c3)[n+]2[O-])cc(C(C)C)c1"
result: 1 to 30 nM

query: Also check "COc1ccc(-c2[nH]c(C)c(C(=O)Nc3cccc(C(F)(F)F)c3)[n+]2[O-])cc1-c1c(C)cccc1C"
result: < 1 nM

query: Also check "COc1ccc(-c2[nH]c(C)c(C(=O)Nc3cccc(C(C)(F)F)c3)[n+]2[O-])cc1-c1c(C)cccc1C"
result: < 1 nM

query: Also check "Cc1cncc(C)c1-c1cc(-c2[nH]c(C)c(C(=O)Nc3cccc(C(F)(F)C4CC4)c3)[n+]2[O-])ccc1OC(F)F"
result: < 1 nM

---

TARGET: ACSS2 in MDA-MB-468 cells (Homo sapiens)
Construct: endogenous in cells
ASSAY_NAME: Cellular fatty-acid IC50: 13C-acetate incorporation into fatty acids (palmitate), LC-MS
COND: hypoxic conditions (1% O2), 75% charcoal stripped serum, 5 hours, 13C-acetate into palmitate, read-out: Cellular Fatty-acid IC50 High Serum MDA468
ASSAY_METRIC: IC50

Some compounds with recorded IC50:
INSERT INTO assay_data (cpd_smiles, assay_metric, experimental_result) VALUES
  ('CC(=O)c1cc(-c2c(C)cccc2C)cc(-c2[nH]c(C)c(C(=O)Nc3cccc(C(F)(F)C4CC4)c3)[n+]2[O-])c1', 'IC50', '> 0.05 µM'),
  ('COc1ccc(-c2[nH]c(C)c(C(=O)Nc3cccc(-c4cn(C)nn4)c3)[n+]2[O-])cc1-c1c(C)cccc1C', 'IC50', '0.02 to 0.05 µM'),
  ('CCC(F)(F)c1cccc(NC(=O)c2c(C)[nH]c(-c3cccc(-c4c(C)cccc4C)c3)[n+]2[O-])c1', 'IC50', '< 0.02 µM'),
  ('CCC(F)(F)c1cccc(NC(=O)c2c(C)[nH]c(-c3cccc(-c4c(C)ncnc4C)c3)[n+]2[O-])c1', 'IC50', '< 0.02 µM'),
  ('CNc1cc(-c2c(C)cccc2C)cc(-c2[nH]c(C)c(C(=O)Nc3cccc(C(F)(F)C4CC4)c3)[n+]2[O-])c1', 'IC50', '0.02 to 0.05 µM'),
  ('CCC(F)(F)c1cccc(NC(=O)c2c(C)[nH]c(-c3ccc(OC)c(-c4c(C)cccc4C)c3)[n+]2[O-])c1', 'IC50', '< 0.02 µM');

Now turn to the next compound.
query: Value lookup for IC50; key = "CNC(=O)c1cccc(NC(=O)c2c(C)[nH]c(-c3ccc(OC)c(-c4c(C)cc(F)cc4C)c3)[n+]2[O-])c1"
result: < 0.02 µM

---

This section presents molecules with their documented IC50 values.
TARGET: ACSS2 in MDA-MB-468 cells (Homo sapiens, UniProt Q9NR19)
Construct: endogenous in cells
Sequence (Q9NR19 whole entry): as above
ASSAY_NAME: Cellular fatty-acid IC50: 13C-acetate incorporation into fatty acids (palmitate), LC-MS
COND: hypoxic conditions (1% O2), 75% charcoal stripped serum, 5 hours, 13C-acetate into palmitate, read-out: Cellular Fatty-acid IC50 High Serum MDA468

query: Value lookup for IC50; key = "CCC(F)(F)c1cccc(NC(=O)c2c(C)[nH]c(-c3cccc(-c4c(C)cccc4C)n3)[n+]2[O-])c1"
result: > 50 nM

query: Also check "CCC(F)(F)c1cccc(NC(=O)c2c(C)[nH]c(-c3ccc(OC)c(-c4ncccc4C)c3)[n+]2[O-])c1"
result: < 20 nM

query: Also check "CCC(F)(F)c1cccc(NC(=O)c2c(C)[nH]c(-c3cccc(-c4c(C)cnnc4C)c3)[n+]2[O-])c1"
result: < 20 nM

query: Also check "CNC(=S)c1cccc(NC(=O)c2c(C)[nH]c(-c3ccc(OC)c(-c4c(C)cccc4C)c3)[n+]2[O-])c1"
result: < 20 nM

query: Also check "CCC(F)(F)c1cccc(NC(=O)c2c(C)[nH]c(-c3cc(CCN(C)C)c(OC)c(-c4c(C)cccc4C)c3)[n+]2[O-])c1"
result: < 20 nM

query: Also check "COc1cc(F)c(-c2[nH]c(C)c(C(=O)Nc3cccc(C(F)(F)C4CC4)c3)[n+]2[O-])cc1-c1c(C)cccc1C"
result: > 50 nM

query: Also check "Cc1cccc(C)c1-c1cc(-c2[nH]c(C)c(C(=O)Nc3cccc(C(F)(F)F)c3)[n+]2[O-])ccc1F"
result: > 50 nM

---

This section presents compounds with their documented IC50 values.
TARGET: ACSS2 in MDA-MB-468 cells (Homo sapiens, UniProt Q9NR19)
Construct: endogenous in cells
ASSAY_NAME: Cellular fatty-acid IC50: 13C-acetate incorporation into fatty acids (palmitate), LC-MS
COND: hypoxic conditions (1% O2), 75% charcoal stripped serum, 5 hours, 13C-acetate into palmitate, read-out: Cellular Fatty-acid IC50 High Serum MDA468

Some compounds with recorded IC50:
INSERT INTO results (compound, assay_metric, experimental_result) VALUES
  ('CNC(=O)c1cccc(NC(=O)c2c(C)[nH]c(-c3cc(NC)cc(-c4c(C)cccc4C)c3)[n+]2[O-])c1 [Compound 181]', 'IC50', '< 20 nM'),
  ('CNC(=O)c1cccc(NC(=O)c2c(C)[nH]c(-c3ccc(OC)c(-c4c(C)cccc4C)c3)[n+]2[O-])c1 [Compound 146]', 'IC50', '< 20 nM'),
  ('Cc1cccc(C)c1-c1cc(-c2[nH]c(C)c(C(=O)Nc3cccc(C(F)(F)C4CC4)c3)[n+]2[O-])ccc1Cl [Compound 197]', 'IC50', '> 50 nM'),
  ('COc1ccc(-c2[nH]c(C)c(C(=O)Nc3cccc(C(F)(F)C4CC4)c3)[n+]2[O-])cc1-c1c(C)cncc1C [Compound 105]', 'IC50', '< 20 nM'),
  ('CCC(F)(F)c1cccc(NC(=O)c2c(C)[nH]c(-c3cc(-c4c(C)cccc4C)c(OC)cc3N)[n+]2[O-])c1 [Compound 124]', 'IC50', '> 50 nM');

query: Value lookup for IC50; key = CNC(=O)c1cccc(NC(=O)c2c(C)[nH]c(-c3cc(-c4c(C)cccc4C)cc(N(C)C)c3)[n+]2[O-])c1 [Compound 182]
result: < 20 nM

query: Also check CCC(F)(F)c1cccc(NC(=O)c2c(C)[nH]c(-c3cc(C)cc(-c4c(C)cccc4C)c3)[n+]2[O-])c1 [Compound 106]
result: > 50 nM
